- method summary: Ratio of drug level from liver to plasma in po dosed rat after 24 hrs
- Assay type: ADME, organism-based
recorded endpoint: Kp at 24 h
Please reply with the value in numeric form only.

Recorded Kp at 24 h (compound Cc1cc(Cn2c(=O)c(C3=CS(=O)(=O)c4cc(NS(C)(=O)=O)ccc4N3)c(O)c3cc(F)ccc32)ccc1F ): 10

====

- method summary: Cmax in male rat at 500 mg/kg, po after 1 day
- Format: ADME, organism-based
- Parameters: dose 500 mg/kg, route oral
- measurement setup: in vivo
recorded endpoint: Cmax (ng/mL)
Numbers only; they are read as ng/mL.

For Cc1cc(Cn2c(=O)c(C3=CS(=O)(=O)c4cc(NS(C)(=O)=O)ccc4N3)c(O)c3cc(F)ccc32)ccc1F the compound record lists Cmax as 93.2

====

- method summary: Oral bioavailability in rat
- Format: ADME, organism-based
- measurement setup: in vivo
recorded endpoint: bioavailability (%)
State just the number; it will be interpreted in %.

// bioavailability lookup, compound = O=c1c(C2=CS(=O)(=O)c3ccccc3N2)c(O)c2cc(F)ccc2n1CCC1CC1 , result: 79

// bioavailability value for O=c1c(C2=Nc3ccccc3S(=O)(=O)N2)c(O)c2cc(F)ccc2n1CCC1CC1 : 10

====

- method summary: Cmax in male rat at 500 mg/kg, po after 7 days
- Assay type: ADME, organism-based
- Parameters: dose 500 mg/kg, route oral
- measurement setup: in vivo
recorded endpoint: Cmax (ng/mL)
The figure you give is taken to be in ng/mL; do not add the unit.

Recorded Cmax (compound Cc1cc(Cn2c(=O)c(C3=CS(=O)(=O)c4cc(NS(C)(=O)=O)ccc4N3)c(O)c3cc(F)ccc32)ccc1F ): 152

====

- Tested on: Hepatitis C virus
- method summary: Antiviral activity against HCV genotype 1b infected in human HuH7 cells by replicon assay
- Assay type: functional, organism-based, Hepacivirus hominis
- measurement setup: Huh-7
recorded endpoint: EC50 (nM)
Write it as a number; the unit nM goes unstated.

Field EC50 (entry O=c1c(C2=CS(=O)(=O)c3ccccc3N2)c(O)c2cc(F)ccc2n1CCC1CC1 ) reads 1200

====

- method summary: AUC (0 to 24 hrs) in male rat at 10 mg/kg, po after 1 day
- Type: ADME, organism-based
- Design: time < 24 hr, dose 10 mg/kg, route oral
- measurement setup: plasma
recorded endpoint: AUC(0-t) at 24 h (µg·h/mL)
Write the answer as a number in µg·h/mL, unit excluded.

Recorded AUC(0-t) at 24 h (compound Cc1cc(Cn2c(=O)c(C3=CS(=O)(=O)c4cc(NS(C)(=O)=O)ccc4N3)c(O)c3cc(F)ccc32)ccc1F ): 0.0254

====

- method summary: Cmax in female rat at 100 mg/kg, po after 1 day
- Format: ADME, organism-based
- Set-up: dose 100 mg/kg, route oral
- measurement setup: in vivo
recorded endpoint: Cmax (ng/mL)
Answer in ng/mL, number only, no unit symbol.

Notebook: Cc1cc(Cn2c(=O)c(C3=CS(=O)(=O)c4cc(NS(C)(=O)=O)ccc4N3)c(O)c3cc(F)ccc32)ccc1F , Cmax read as 13

====

- method summary: AUC (0 to 24 hrs) in female rat at 10 mg/kg, po after 1 day
- Format: ADME, organism-based
- Design: time < 24 hr, dose 10 mg/kg, route oral
- measurement setup: plasma
recorded endpoint: AUC(0-t) at 24 h

The compound Cc1cc(Cn2c(=O)c(C3=CS(=O)(=O)c4cc(NS(C)(=O)=O)ccc4N3)c(O)c3cc(F)ccc32)ccc1F showed AUC(0-t) at 24 h equal to 25.6 ng·h/mL

Origin of the recorded values: ChEMBL document CHEMBL1137771
